In this section we review reported inhibition at 10 µM values for a set of molecules.
biological target: human B1R receptor (hB1R) (Homo sapiens, UniProt P46663); construct: host or cells: CHO K1 cells; assay: FLIPR Ca2+ assay on human bradykinin 1 receptor (CHO K1 hB1R cells); format: cell-based; settings: test substance 10 μM; CHO K1 cells with human B1R gene; agonist Lys-Des-Arg9-bradykinin 0.5 nM; compared to maximum achievable inhibition
Sequence (P46663 whole entry): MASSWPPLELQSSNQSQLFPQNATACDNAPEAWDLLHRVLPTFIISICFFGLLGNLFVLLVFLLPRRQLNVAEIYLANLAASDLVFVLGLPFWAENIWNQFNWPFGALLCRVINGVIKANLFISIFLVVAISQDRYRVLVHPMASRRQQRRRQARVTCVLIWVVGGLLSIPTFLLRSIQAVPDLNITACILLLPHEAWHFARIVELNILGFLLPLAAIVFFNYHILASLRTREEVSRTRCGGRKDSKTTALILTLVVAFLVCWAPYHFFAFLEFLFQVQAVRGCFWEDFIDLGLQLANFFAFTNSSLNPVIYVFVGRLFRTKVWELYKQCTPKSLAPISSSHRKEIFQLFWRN
Measurement name: inhibition at 10 µM (%)

Molecule | Value units | Reported
COc1cc(C)c(S(=O)(=O)N(C)CCOCC(=O)N2CCn3c(CN(C)C)ccc3C2Cc2ccccc2)c(C)c1C (stereo not shown) | % | 102
CCCC1c2cccn2CCN1C(=O)COCCN(CC(C)C)S(=O)(=O)c1c(C)cc(OC)c(C)c1C (stereo not shown) | % | 91
COc1cc(C)c(S(=O)(=O)N(C)CCOCC(=O)N2CCn3cccc3C2C(C)(C)C)c(C)c1 (stereo not shown) | % | 100
Cc1cc(C)c(S(=O)(=O)N(C)CCOCC(=O)N2CCn3cccc3C2C(C)C)c(C)c1 (stereo not shown) | % | 103
Cc1cc(C)c(S(=O)(=O)N(C)CCOCC(=O)N2CCn3cccc3C2c2cccc(F)c2)c(C)c1 (stereo not shown) | % | 102
COc1c(C)cc(S(=O)(=O)N(C)CCOCC(=O)N2CCn3cccc3C2c2ccc(C(F)(F)F)cc2F)c(C)c1C (stereo not shown) | % | 35
COc1cc(C)c(S(=O)(=O)N(C)CCOCC(=O)N2CCn3cccc3C2c2ccc(C(F)(F)F)cc2F)c(C)c1 (stereo not shown) | % | 102

====

In this section we review reported inhibition at 10 µM values for a set of molecules.
target: human B1R receptor (hB1R) (Homo sapiens, UniProt P46663); construct: host or cells: CHO K1 cells; test: FLIPR Ca2+ assay on human bradykinin 1 receptor (CHO K1 hB1R cells); assay type: cell-based; details: test substance 10 μM; CHO K1 cells with human B1R gene; agonist Lys-Des-Arg9-bradykinin 0.5 nM; compared to maximum achievable inhibition
Measurement name: inhibition at 10 µM (%)

Molecule | Reported
CCC1c2cccn2CCN1C(=O)COCCN(C)S(=O)(=O)c1c(C)cc(OC)cc1C (centres unmarked) | 104
COc1cc(C)c(S(=O)(=O)N(C)CCOCC(=O)N2CCn3cc(-c4ccncc4)nc3C2)c(C)c1 | 100
COc1cc(C)c(S(=O)(=O)N(CCOCC(=O)N2CCn3c(CN4CCCC4)ccc3C2c2ccccc2)Cc2ccccc2)c(C)c1C (centres unmarked) | 103
Cc1cc(C)c(S(=O)(=O)N(C)CCOCC(=O)N2CCn3cccc3C2C)c(C)c1 (centres unmarked) | 87
Cc1cc(C)c(S(=O)(=O)N(C)CCOCC(=O)N2CCn3cccc3C2c2ccc(C(C)(C)C)cc2)c(C)c1 (centres unmarked) | 32
CCCCC1c2ccc(CN(C)C)n2CCN1C(=O)COCCN(C)S(=O)(=O)c1c(C)cc(OC)cc1C (centres unmarked) | 104
COc1cc(C)c(S(=O)(=O)N(CCOCC(=O)N2CCn3cccc3C2c2cccnc2)Cc2ccccc2)c(C)c1C (centres unmarked) | 57
COc1cc(C)c(S(=O)(=O)N(C)CCOCC(=O)N2CCn3c(CCCN4CCN(C)CC4)ccc3C2)c(C)c1 | 97
COc1cc(C)c(S(=O)(=O)N(CCOCC(=O)N2CCn3cccc3C2c2cccs2)Cc2ccccc2)c(C)c1 (centres unmarked) | 48
Cc1cc(C)c(S(=O)(=O)N(C)CCOCC(=O)N2CCn3c(CN(C)C)ccc3C2Cc2ccccc2)c(C)c1 (centres unmarked) | 100
COc1cc(C)c(S(=O)(=O)N(CCOCC(=O)N2CCn3c(CN4CCCCC4)ccc3C2c2ccccc2)Cc2ccccc2)c(C)c1 (centres unmarked) | 101
Cc1cc(C)c(S(=O)(=O)N(C)CCOCC(=O)N2CCn3cccc3C2c2ccccc2)c(C)c1 (centres unmarked) | 101
Cc1cc(C)c(S(=O)(=O)N(C)CCOCC(=O)N2CCn3c(CN(C)C)ccc3C2c2ccccc2)c(C)c1 (centres unmarked) | 102
COc1cc(C)c(S(=O)(=O)N(C)CCOCC(=O)N2CCn3c(CN(C)C)ccc3C2c2ccccc2)c(C)c1C (centres unmarked) | 89
Cc1cc(C)c(S(=O)(=O)N(C)CCOCC(=O)N2CCn3cccc3C2c2ccc(C)c(C)c2)c(C)c1 (centres unmarked) | 97
O=C(CC(NS(=O)(=O)c1ccc2ccccc2c1)c1ccccc1)N1CCn2c(CN3CCCC3)ccc2C1 (centres unmarked) | 95
O=C(C[C@@H](NS(=O)(=O)c1ccc2ccccc2c1)c1ccccc1)N1CCn2c(nc(CN3CCCCC3)c2Cl)C1 | 99
COc1ccc(C2c3cccn3CCN2C(=O)COCCN(C)S(=O)(=O)c2c(C)cc(C)cc2C)cc1 (centres unmarked) | 101
COc1cc(C)c(S(=O)(=O)N(CCOCC(=O)N2CCn3c(CN4CCCC4)ccc3C2c2ccccc2)Cc2ccccc2)c(C)c1 (centres unmarked) | 99
COc1ccc(C2c3cccn3CCN2C(=O)COCCN(Cc2ccccc2)S(=O)(=O)c2c(C)cc(OC)cc2C)cc1 (centres unmarked) | 42
COc1cc(C)c(S(=O)(=O)N(C)CCOCC(=O)N2CCn3c(CN(C)C)ccc3C2c2ccccc2)c(C)c1 (centres unmarked) | 103
CCC1c2ccc(CN(C)C)n2CCN1C(=O)COCCN(C)S(=O)(=O)c1cc(C)c(OC)c(C)c1C (centres unmarked) | 103
COc1cc(C)c(S(=O)(=O)N(CCOCC(=O)N2CCn3cccc3C2c2ccc(C)c(C)c2)Cc2ccccc2)c(C)c1 (centres unmarked) | 39
COc1cc(C)c(S(=O)(=O)N(CCOCC(=O)N2CCn3cccc3C2C(C)(C)C)CC(C)C)c(C)c1C (centres unmarked) | 82
COc1cc(C)c(S(=O)(=O)N(C)CCOCC(=O)N2CCn3cc(CN4CCCCC4)nc3C2)c(C)c1 | 106
COc1cc(C)c(S(=O)(=O)N(C)CCOCC(=O)N2CCn3c(CCc4cccnc4)ccc3C2)c(C)c1 | 99
COc1c(C)cc(S(=O)(=O)N(C)CCOCC(=O)N2CCn3cccc3C2c2ccc(F)c(F)c2)c(C)c1C (centres unmarked) | 71
COc1cc(C)c(S(=O)(=O)N(C)CCOCC(=O)N2CCn3cccc3C2c2cccc(F)c2)c(C)c1C (centres unmarked) | 101
COc1cc(C)c(S(=O)(=O)N(C)CCOCC(=O)N2CCn3c(CCc4ccncc4)ccc3C2)c(C)c1 | 100

====

Target: B1R receptor of rats (rB1R) (Rattus norvegicus, UniProt P97583)
Construct: host or cells: CHO K1 cells
Sequence (P97583 whole entry): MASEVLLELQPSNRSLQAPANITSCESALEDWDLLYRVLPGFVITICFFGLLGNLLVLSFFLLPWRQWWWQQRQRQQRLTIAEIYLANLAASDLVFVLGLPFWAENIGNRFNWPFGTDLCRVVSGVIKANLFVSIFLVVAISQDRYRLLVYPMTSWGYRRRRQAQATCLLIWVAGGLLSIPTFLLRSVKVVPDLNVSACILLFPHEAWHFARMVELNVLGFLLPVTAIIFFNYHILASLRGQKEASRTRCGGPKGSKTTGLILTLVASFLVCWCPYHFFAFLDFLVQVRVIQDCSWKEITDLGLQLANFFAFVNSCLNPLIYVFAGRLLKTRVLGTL
Assay: FLIPR Ca2+ assay on rat bradykinin 1 receptor (CHO K1 rB1R cells)
Type: cell-based
Conditions: test substance 10 μM; CHO K1 cells with B1R gene of rats; agonist Des-Arg9-bradykinin 100 nM; compared to maximum achievable inhibition
Text: The agonistic or antagonistic action of compounds can be quantified on the bradykinin 1 receptor (B1R) of humans and rats with ectopically expressing cell lines (CHO K1 cells) and with the aid of a Ca^2+-sensitive dye (Fluo-4) in the fluorescent imaging plate reader (FLIPR). […] The agonistic or antagonistic action of substances can be determined on the bradykinin 1 receptor (B1R) of humans and rats by means of the following assay. […]
Measurement name: inhibition at 10 µM

Compound | Reported
COc1cc(C)c(S(=O)(=O)N(CCOCC(=O)N2CCn3cccc3C2C)Cc2ccccc2)c(C)c1C (stereo not drawn) | 95%
COc1cc(C)c(S(=O)(=O)N(CCOCC(=O)N2CCn3cccc3C2c2ccc(C(C)(C)C)cc2)Cc2ccccc2)c(C)c1 (stereo not drawn) | 85%
COc1c(C)cc(S(=O)(=O)N(C)CCOCC(=O)N2CCn3cccc3C2c2cccc(C(F)(F)F)c2)c(C)c1C (stereo not drawn) | 72%
O=C(C[C@@H](NS(=O)(=O)c1ccc2ccccc2c1)c1ccccc1)N1CCn2cc(CN3CCCCC3)nc2C1 | 98%
COc1c(C)cc(S(=O)(=O)N(C)CCOCC(=O)N2CCn3cccc3C2c2ccc(C(F)(F)F)cc2F)c(C)c1C (stereo not drawn) | 80%
COc1cc(C)c(S(=O)(=O)N(CCOCC(=O)N2CCn3c(CN4CCCC4)ccc3C2c2ccccc2)CC(C)C)c(C)c1C (stereo not drawn) | 102%
COc1cc(C)c(S(=O)(=O)N(CCOCC(=O)N2CCn3c(CN(C)C)ccc3C2c2ccccc2)CC(C)C)c(C)c1C (stereo not drawn) | 103%
COc1c(C)cc(S(=O)(=O)N(C)CCOCC(=O)N2CCn3cccc3C2c2cccs2)c(C)c1C (stereo not drawn) | 85%
COc1cc(C)c(S(=O)(=O)N(C)CCOCC(=O)N2CCn3c(CN4CCCCC4)nnc3C2)c(C)c1 | 103%
CCC1c2cccn2CCN1C(=O)COCCN(CC(C)C)S(=O)(=O)c1c(C)cc(OC)c(C)c1C (stereo not drawn) | 103%
COc1cc(C)c(S(=O)(=O)N(C)CCOCC(=O)N2CCn3cccc3C2C)c(C)c1C (stereo not drawn) | 97%
CCCCC1c2ccc(CN(C)C)n2CCN1C(=O)COCCN(Cc1ccccc1)S(=O)(=O)c1c(C)cc(OC)c(C)c1C (stereo not drawn) | 92%
COc1cc(C)c(S(=O)(=O)N(CCOCC(=O)N2CCn3cccc3C2CCc2ccccc2)Cc2ccccc2)c(C)c1 (stereo not drawn) | 78%
COc1cc(C)c(S(=O)(=O)N(CCOCC(=O)N2CCn3cccc3C2c2cccnc2)Cc2ccccc2)c(C)c1C (stereo not drawn) | 96%
CCC1c2ccc(CN(C)C)n2CCN1C(=O)COCCN(CC(C)C)S(=O)(=O)c1c(C)cc(OC)c(C)c1C (stereo not drawn) | 101%
